Test system: SW-620 colon
Assay: NCI tumour cell line growth inhibition, 48 h
endpoint-label: TGI

COc1cccc(NC(=O)CC(=O)NNCC(=O)Nc2nnc(-c3ccc(N(CCC#N)S(=O)(=O)c4ccccc4)cc3)s2)c1: > 100 µM
COc1cc2c(cc1C)NC(=O)/C2=C\c1ccncc1: > 100 µM
COc1cc2c(cc1-c1coc3cc(OCC=C(C)C)ccc3c1=O)OCO2: > 100 µM
Cc1occ2c1C(=O)CC1C2[C@@H](O)CC2C(C)(C)CCC[C@]12C (some centres not stated): > 100 µM
C=C1C(=O)O[C@H]2[C@H]1CC/C(CNC(=O)/C=C/c1ccccc1)=C\CC[C@@]1(C)O[C@@H]21: 2.32 µM
CC(=O)O[C@H]1CN(S(=O)(=O)c2ccc(C)cc2)C[C@@H]1C1CCCCC1: > 100 µM
C=C1CC[C@@H]2[C@](C)(COC(C)=O)[C@H](OC(C)=O)CC[C@@]2(C)[C@@H]1CC(Nc1ccc(S(=O)(=O)Nc2nccs2)cc1)C1=CCOC1=O (some centres not stated): 3.98 µM
COc1ccc2c(c1OC)C(=O)O[C@@H]2[C@H]1c2cc3c(cc2CCN1C)OCO3: > 100 µM
CSc1nc(C#N)c(N)n1C: > 100 µM
COc1cc(/C=N\NC(=O)C[N+](C)(C)C)cc(OC)c1OC: > 10 µM

Endpoint output: TGI of COC(=O)C1=C(C)N(NC(=O)c2ccccc2)C2(O)CCCC(=O)C12C (configuration not stated) . Value?
> 100 µM

Endpoint output: TGI of CN(/N=N/c1nc[nH]c1C(N)=O)C1CCCCC1 . Value?
> 100 µM

====

Test system: HOP-92 NSCLC
Assay: NCI tumour cell line growth inhibition, 48 h
Below: a set of entries, each annotated with reported TGI.

Brc1cccc(-c2cc(-c3ccc4nccnc4c3)[nH]n2)c1: > 250 µM

Endpoint output: TGI of Cc1nn(C(=O)c2ccncc2)c2c1C(c1cccc([N+](=O)[O-])c1)SC(N)=N2 (centres undefined) . Value?
> 10 µM

Endpoint output: TGI of COC(=O)C#CCC1CCCC1C1SCCS1 (centres undefined) . Value?
> 100 µM

Endpoint output: TGI of CSc1ncc2c(n1)-c1ccccc1OC2NC(C)(C)C (centres undefined) . Value?
> 100 µM

====

Tested on: RXF-631 renal
Assay: NCI tumour cell line growth inhibition, 48 h
endpoint-label: TGI

Endpoint output: TGI of COc1cccc(NC(=O)CC(=O)NNCC(=O)Nc2nnc(-c3ccc(N(CCC#N)S(=O)(=O)c4ccccc4)cc3)s2)c1 . Value?
> 100 µM

Endpoint output: TGI of COc1cc(/C=C\c2ccncc2)cc(OC)c1OC . Value?
> 100 µM

Endpoint output: TGI of Cc1ccc(NC(=O)CC2SC(N)=NC2=O)cc1C (stereo not drawn) . Value?
> 100 µM

====

System: NCI-H460 lung
Test: NCI tumour cell line growth inhibition, 48 h
endpoint-label: TGI

// known answers, use as guide
CN(c1ccc(C#N)c(Cl)c1)C1CCC(NC(=O)c2ccc(N3CCN(C4CN(c5ccc6c(c5)C(=O)N(C5CCC(=O)NC5=O)C6=O)C4)CC3)cc2)CC1 (stereo unspecified): > 100 µM
NCCC(=O)NC(Cc1cnc[nH]1)C(=O)O (stereo unspecified): > 100 µM
COc1cc(/C=C\c2ccncc2)cc(OC)c1OC: > 100 µM
c1csc(-c2csc(-c3ccsc3)c2)c1: > 100 µM
CC(=O)Nc1ccc(C(=O)N2N=C(C)/C(=C/c3cccc([N+](=O)[O-])c3)C2=O)cc1: > 100 µM

Endpoint output: TGI of COc1ccc(-c2onc(-c3c(C)cc(C)cc3C)c2C2=NCCN2)cc1 . Value?
> 100 µM

Endpoint output: TGI of CC(=O)[CH-]C(=O)Nc1ccccc1.CC(=O)[CH-]C(=O)Nc1ccccc1.CC[O-].CC[O-].[Ti+4] . Value?
> 100 µM
